measured.target: T1, monomeric recombinant cynomologus monkey Notch3 extracellular domain (containing EGF like domains 1-12) … (cynomologus monkey)
T1 construct: domain: EGF like domains 1-12; also called monomeric rcNotch3
experiment.summary: SPR BIAcore T100, antibody captured by anti-human IgG Fc, monomeric rcNotch3 analyte, 37 C
recorded.endpoint: kon

binder: Hu4F11-70 (antibody, human IgG1, kappa, V domains shown, Humanized, human IgG1 kappa; Hv3-23 A28T S31H T62S heavy + Kv2D-29 N28H kappa) VH: EVQLLESGGGLVQPGGSLRLSCAASGFTFSHYDMSWVRQAPGKGLEWVSYISRGGGSTYYPDSVKGRFTISRDNSKNTLYLQMNSLRAEDTAVYYCGRHATTAYWYFDVWGQGTMVTVSS VL: DVVMTQTPLSLSVTPGQPASISCRSSQSLVHTHGNTYLHWYLQKPGQSPQLLIYKVSNRFSGVPDRFSGSGSGTDFTLKISRVEAEDVGVYFCSQSTHVPWTFGQGTKVEIKR
recorded.endpoint: kon
recorded.measurement: 370000 M⁻¹ s⁻¹

binder: Hu4F11-69 (antibody, human IgG1, kappa, V domains shown, Humanized, human IgG1 kappa; Hv3-23 A28T S31N T62S heavy + Kv2D-29 N28H kappa) VH: EVQLLESGGGLVQPGGSLRLSCAASGFTFSNYDMSWVRQAPGKGLEWVSYISRGGGSTYYPDSVKGRFTISRDNSKNTLYLQMNSLRAEDTAVYYCGRHATTAYWYFDVWGQGTMVTVSS VL: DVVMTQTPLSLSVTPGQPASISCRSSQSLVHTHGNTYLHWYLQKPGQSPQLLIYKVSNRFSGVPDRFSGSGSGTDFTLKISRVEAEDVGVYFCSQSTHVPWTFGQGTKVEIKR
recorded.endpoint: kon
recorded.measurement: 400000 M⁻¹ s⁻¹

binder: Hu4F11-77 (antibody, human IgG1, kappa, V domains shown, Humanized, human IgG1 kappa; Hv3-23 A28T S31N T62S heavy + Kv2D-29 N28Q kappa) VH: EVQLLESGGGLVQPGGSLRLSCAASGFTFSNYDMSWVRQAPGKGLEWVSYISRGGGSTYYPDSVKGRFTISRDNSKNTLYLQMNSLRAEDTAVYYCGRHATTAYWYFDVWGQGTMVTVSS VL: DVVMTQTPLSLSVTPGQPASISCRSSQSLVHTQGNTYLHWYLQKPGQSPQLLIYKVSNRFSGVPDRFSGSGSGTDFTLKISRVEAEDVGVYFCSQSTHVPWTFGQGTKVEIKR
recorded.endpoint: kon
recorded.measurement: 910000 M⁻¹ s⁻¹
